Tested on: MALME-3M melanoma
Test: NCI-60 one-dose screen, 48 h (100 = growth as untreated, 0 = no growth, -100 = all killed)
Details: 10 µM unless noted
Method: Cells are grown in 96 well plates and exposed to the test compound for 48 hours. Compounds are tested at a single concentration, which is 10^-5 M for most compounds. The reported endpoint is percent growth (GI% or GIPRCNT), where numbers from 0 - 100% represent growth inhibition, and numbers from -100% - 0 represent cell death. For example, a value of 40 represents 60% growth inhibition. A value of 0 means no net growth occurred over the course of the experiment. […]
This is part of a sample that, as a whole, favours compounds with a hit. Of some 83,000 tested, about 20% had one in any assay.
Consider the following partition of reported growth into named classes: lower bin: < 50%; middle bin: ≥ 50% and < 80%; upper bin: ≥ 80%

Record excerpt, results attached:
Asked: The entry to classify is CC(CN)[C@@H]1CC[C@]2(CO)CC[C@]3(C)[C@H](CC[C@@H]4[C@@]5(C)CCC(N)C(C)(C)[C@@H]5CC[C@]43C)[C@@H]12 (stereo not given in full) ; which class holds it?
Given back: middle bin

Asked: Repeat for the following compound: CC[C@]12C=CCN3CC[C@@]4(c5ccc(OC)cc5N(C)[C@H]4[C@@](O)(C(=O)OC)[C@@H]1OC(=O)CCCN1CCOCC1)[C@@H]32
Given back: upper bin

Asked: Repeat for the following compound: C=C1C(=O)O[C@H]2[C@H]1CC/C(Cn1cc(-c3cc(C(F)(F)F)cc(C(F)(F)F)c3)nn1)=C\CC[C@@]1(C)O[C@@H]21
Given back: lower bin

Asked: Repeat for the following compound: COc1cc(C(=O)c2c(-c3ccccc3)oc3c(OC)cccc23)cc(OC)c1O
Given back: lower bin

Asked: Repeat for the following compound: Cn1c(O)c(C(/C=C/c2ccccc2)=Nc2ccccc2N)c(=O)n(C)c1=O
Given back: upper bin

Continuing:
Asked: The entry to classify is CCOC(=O)c1c2c(n3ccccc13)C(=O)c1ncccc1C2=O ; which class holds it?
Given back: lower bin

Asked: Repeat for the following compound: O=C(N/N=C/c1ccc(O)cc1O)c1ccc(Nc2ccnc(C(F)(F)F)c2)cc1
Given back: lower bin

Asked: Repeat for the following compound: CCN1C(=O)N(CC)C2C1NN=C1SCC(=O)N12 (stereo not given)
Given back: middle bin

Asked: Repeat for the following compound: CN(C)c1ccc(/C=C/C(=O)c2ccccc2)cc1
Given back: upper bin
